These entries and their values trace back to the supplement of paper PMC9254222.

Reported Renilla luciferase signal values are given for each entry in this list.
Test system: HEK293T (UBE3A T485A transfected, BAR Wnt reporter)
experiment-summary: Renilla luciferase signal (cell health) relative to plate median (fold (linear ratio)); higher = higher Renilla signal
assay-context: concentration: 0.01 uM; 24 h
Whole data set: some 1,100 compounds, median “Renilla luciferase signal (cell health) relative to plate median” near 0.97, cut for the highest 2% near 1.6. What follows is part of a selection rich in the highest values, with near analogues and random picks from the rest.

compound | measured-result
CCCCOC(=O)c1ccccc1C(=O)O [Monobutyl phthalate] | 0.968
CN(C)c1nc(=O)n(C2CCCCC2)c(=O)n1C | 0.842
CC(C)Oc1cccc(NC(=O)c2ccccc2C(F)(F)F)c1 | 0.958
N#CN [Cyanamide] | 0.837

Please turn your attention to the following entry.
Field Renilla luciferase signal (entry CN(C)NC(=O)CCC(=O)O [Daminozide] ) reads 0.728
